Where do the numbers come from? From ChEMBL document CHEMBL5046309.

# assayProtocol: Clearance in Beagle dog at 1 mg/kg, iv measured up to 24 hrs by LC-MS/MS analysis
# Type: ADME, organism-based, Canis lupus familiaris
# conditionLabel: in vivo
outcomeMeasure: clearance (mL/min/kg)
Reply numerically in mL/min/kg, unit not repeated.

Exercise: Can you share its clearance? I mean this compound: C[C@H]1Cn2cnc(C(=O)N[C@H](C)C(F)(F)F)c2CN1C(=O)Nc1ccc(F)c(C#N)c1
Solution: 1.1

* * *

# assayProtocol: Clearance in Sprague-Dawley rat at 1 mg/kg, iv measured up to 24 hrs by LC-MS/MS analysis
# Assay type: ADME, organism-based
# conditionLabel: in vivo
outcomeMeasure: clearance

>>> print(df.to_string())
                                 testsmiles  outcomemeasure             val
0  Cc1cc(NC(=O)N2Cc3c(C(=O)N[C@H](C)C(F)(F)F)ncn3C[C@@H]2C)ccc1F       clearance  26.6 mL/min/kg

Now examine the next entry.
Exercise: Can you share its clearance? I mean this compound: C[C@H]1Cn2cnc(C(=O)N[C@H](C)C(F)(F)F)c2CN1C(=O)Nc1ccc(F)c(C#N)c1
Solution: 4.5 mL/min/kg

* * *

# assayProtocol: Plasma protein binding in human by LC-MS/MS analysis
# Assay type: ADME, cell-free
# conditionLabel: read-out: PPB (converted)
outcomeMeasure: fraction unbound
Just the number, please.

Exercise: Can you share its fraction unbound? I mean this molecule: C[C@H]1Cn2cnc(C(=O)N[C@H](C)C(F)(F)F)c2CN1C(=O)Nc1ccc(F)c(C#N)c1
Solution: 0.113

* * *

# assayProtocol: Cmax in nude mouse at 2 mg/kg, po measured up to 24 hrs by LC-MS/MS analysis
# Assay type: ADME, organism-based
# Design: route oral, dose 2 mg/kg, time <=24
# conditionLabel: in vivo
outcomeMeasure: Cmax

Exercise: Can you share its Cmax? I mean this compound: C[C@H]1Cn2cnc(C(=O)N[C@H](C)C(F)(F)F)c2CN1C(=O)Nc1ccc(F)c(C#N)c1
Solution: 1120 ng/mL

* * *

# assayProtocol: Cmax in nude mouse at 100 mg/kg, po measured up to 24 hrs by LC-MS/MS analysis
# Type: ADME, organism-based
# Parameters: route oral, dose 100 mg/kg, time <=24
# conditionLabel: in vivo
outcomeMeasure: Cmax (ng/mL)
Reply numerically in ng/mL, unit not repeated.

Exercise: Can you share its Cmax? I mean this compound: C[C@H]1Cn2cnc(C(=O)N[C@H](C)C(F)(F)F)c2CN1C(=O)Nc1ccc(F)c(C#N)c1
Solution: 22200

* * *

# assayTarget: Cytochrome P450 2C19 (Homo sapiens, UniProt P33261)
# Sequence (P33261 whole entry): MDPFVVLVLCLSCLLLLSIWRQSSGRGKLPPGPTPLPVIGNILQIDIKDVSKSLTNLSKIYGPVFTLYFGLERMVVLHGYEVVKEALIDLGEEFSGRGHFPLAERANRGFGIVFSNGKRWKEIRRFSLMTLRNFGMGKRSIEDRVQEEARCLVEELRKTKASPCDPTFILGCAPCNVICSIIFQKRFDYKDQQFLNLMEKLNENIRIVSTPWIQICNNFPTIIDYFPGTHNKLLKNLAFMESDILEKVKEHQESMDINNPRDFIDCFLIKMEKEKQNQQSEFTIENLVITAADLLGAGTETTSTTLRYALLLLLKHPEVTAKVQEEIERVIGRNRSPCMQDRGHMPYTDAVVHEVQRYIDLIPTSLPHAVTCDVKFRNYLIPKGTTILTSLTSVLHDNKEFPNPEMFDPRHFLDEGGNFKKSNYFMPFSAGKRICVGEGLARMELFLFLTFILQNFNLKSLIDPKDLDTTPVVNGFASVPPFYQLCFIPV
# assayProtocol: Inhibition of recombinant human CYP2C19 by LC-MS/MS analysis
pIC50: −log10 of the molar value.
outcomeMeasure: pIC50

Exercise: Can you share its pIC50? I mean this compound: C[C@H]1Cn2cnc(C(=O)N[C@H](C)C(F)(F)F)c2CN1C(=O)Nc1ccc(F)c(C#N)c1
Solution: < 4.52

* * *

# assayTarget: Cytochrome P450 2C9 (Homo sapiens, UniProt P11712)
# Sequence (P11712 whole entry): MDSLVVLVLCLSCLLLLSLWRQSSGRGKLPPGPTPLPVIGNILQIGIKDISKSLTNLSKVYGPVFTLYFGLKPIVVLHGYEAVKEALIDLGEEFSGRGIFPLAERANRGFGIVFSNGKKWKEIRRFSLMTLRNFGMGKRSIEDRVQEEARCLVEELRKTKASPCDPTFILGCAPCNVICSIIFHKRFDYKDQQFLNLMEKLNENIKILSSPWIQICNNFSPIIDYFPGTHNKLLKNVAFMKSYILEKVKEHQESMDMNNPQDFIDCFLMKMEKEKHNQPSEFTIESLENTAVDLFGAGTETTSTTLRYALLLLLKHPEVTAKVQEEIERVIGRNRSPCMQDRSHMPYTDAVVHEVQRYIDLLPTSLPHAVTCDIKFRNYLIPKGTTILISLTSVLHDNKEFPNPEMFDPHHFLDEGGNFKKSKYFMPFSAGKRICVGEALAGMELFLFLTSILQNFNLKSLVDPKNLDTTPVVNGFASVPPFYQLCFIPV
# assayProtocol: Inhibition of recombinant human CYP2C9 by LC-MS/MS analysis
pIC50: −log10 of the molar value.
outcomeMeasure: pIC50

Exercise: Can you share its pIC50? I mean this molecule: C[C@H]1Cn2cnc(C(=O)N[C@H](C)C(F)(F)F)c2CN1C(=O)Nc1ccc(F)c(C#N)c1
Solution: < 4.52

* * *

# assayProtocol: Cmax in Sprague-Dawley rat at 2 mg/kg, po measured up to 24 hrs by LC-MS/MS analysis
# Type: ADME, organism-based
# Set-up: route oral, dose 2 mg/kg, time <=24
# conditionLabel: in vivo
outcomeMeasure: Cmax (ng/mL)
Reply numerically in ng/mL, unit not repeated.

                                 testsmiles  val
0  C[C@H]1Cn2cnc(C(=O)N[C@H](C)C(F)(F)F)c2CN1C(=O)Nc1ccc(F)c(C#N)c1  597

Now examine the next entry.
Exercise: Can you share its Cmax? I mean this compound: Cc1cc(NC(=O)N2Cc3c(C(=O)N[C@H](C)C(F)(F)F)ncn3C[C@@H]2C)ccc1F
Solution: 492

* * *

# assayTarget: Cytochrome P450 2D6 (Homo sapiens, UniProt P10635)
# Sequence (P10635 whole entry): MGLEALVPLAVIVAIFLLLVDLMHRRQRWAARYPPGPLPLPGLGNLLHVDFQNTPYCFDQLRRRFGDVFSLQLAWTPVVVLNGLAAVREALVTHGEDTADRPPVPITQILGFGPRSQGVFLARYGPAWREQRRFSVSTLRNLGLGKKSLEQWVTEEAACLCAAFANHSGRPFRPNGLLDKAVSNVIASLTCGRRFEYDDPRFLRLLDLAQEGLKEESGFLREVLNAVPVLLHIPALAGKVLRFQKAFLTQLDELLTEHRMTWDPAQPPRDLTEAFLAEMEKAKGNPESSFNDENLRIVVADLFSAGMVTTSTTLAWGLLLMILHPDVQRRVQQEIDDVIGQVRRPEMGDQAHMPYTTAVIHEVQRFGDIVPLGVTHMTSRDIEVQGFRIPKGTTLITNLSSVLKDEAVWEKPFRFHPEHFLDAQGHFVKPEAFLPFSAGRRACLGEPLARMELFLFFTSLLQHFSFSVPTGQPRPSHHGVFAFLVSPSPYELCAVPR
# assayProtocol: Inhibition of recombinant human CYP2D6 by LC-MS/MS analysis
# Format: ADME
pIC50: −log10 of the molar value.
outcomeMeasure: pIC50

Exercise: Can you share its pIC50? I mean this molecule: C[C@H]1Cn2cnc(C(=O)N[C@H](C)C(F)(F)F)c2CN1C(=O)Nc1ccc(F)c(C#N)c1
Solution: < 4.52

* * *

# assayProtocol: Lipophilicity, logD of compound at pH 7.4 by LC-MS/MS analysis
# Type: physicochemical
# conditionLabel: buffer
outcomeMeasure: logD
Just the number, please.

Exercise: Can you share its logD? I mean this compound: C[C@H]1Cn2cnc(C(=O)N[C@H](C)C(F)(F)F)c2CN1C(=O)Nc1ccc(F)c(C#N)c1
Solution: 2.27

* * *

# assayProtocol: Cmax in Beagle dog at 0.5 mg/kg, po measured up to 24 hrs by LC-MS/MS analysis
# Assay type: ADME, organism-based, Canis lupus familiaris
# Design: route oral, dose 0.5 mg/kg, time <=24
# conditionLabel: in vivo
outcomeMeasure: Cmax (ng/mL)
Reply numerically in ng/mL, unit not repeated.

Exercise: Can you share its Cmax? I mean this compound: C[C@H]1Cn2cnc(C(=O)N[C@H](C)C(F)(F)F)c2CN1C(=O)Nc1ccc(F)c(C#N)c1
Solution: 559

* * *

# assayProtocol: Solubility of the compound in phosphate buffer at pH 7.4 using amorphous form of sample by LC-MS/MS analysis
# Format: physicochemical
outcomeMeasure: solubility (µM)
Reply numerically in µM, unit not repeated.

Exercise: Can you share its solubility? I mean this compound: C[C@H]1Cn2cnc(C(=O)N[C@H](C)C(F)(F)F)c2CN1C(=O)Nc1ccc(F)c(C#N)c1
Solution: 106

* * *

# assayProtocol: Apparent permeability of the compound across basolateral to apical side in […] measured up to 24 hrs by LC-MS/MS analysis
# Type: ADME, cell-based
outcomeMeasure: Papp B→A at 24 h (×10⁻⁶ cm/s)
Reply numerically in ×10⁻⁶ cm/s, unit not repeated.

Exercise: Can you share its Papp B→A at 24 h? I mean this molecule: C[C@H]1Cn2cnc(C(=O)N[C@H](C)C(F)(F)F)c2CN1C(=O)Nc1ccc(F)c(C#N)c1
Solution: 51.4

* * *

# assayProtocol: Microsomal stability in human liver microsome assessed as half life measured up to 24 hrs by LC-MS/MS analysis
# Format: ADME
# conditionLabel: liver microsomes
outcomeMeasure: half-life

Exercise: Can you share its half-life? I mean this compound: C[C@H]1Cn2cnc(C(=O)N[C@H](C)C(F)(F)F)c2CN1C(=O)Nc1ccc(F)c(C#N)c1
Solution: > 2.32 h

* * *

# assayProtocol: Plasma protein binding in rat by LC-MS/MS analysis
# Assay type: ADME, cell-free
# conditionLabel: read-out: PPB (converted)
outcomeMeasure: fraction unbound
Just the number, please.

Exercise: Can you share its fraction unbound? I mean this compound: C[C@H]1Cn2cnc(C(=O)N[C@H](C)C(F)(F)F)c2CN1C(=O)Nc1ccc(F)c(C#N)c1
Solution: 0.244

* * *

# assayProtocol: Clearance in nude mouse at 1 mg/kg, iv measured up to 24 hrs by LC-MS/MS analysis
# Type: ADME, organism-based
# conditionLabel: in vivo
outcomeMeasure: clearance (mL/min/kg)
Reply numerically in mL/min/kg, unit not repeated.

Exercise: Can you share its clearance? I mean this compound: C[C@H]1Cn2cnc(C(=O)N[C@H](C)C(F)(F)F)c2CN1C(=O)Nc1ccc(F)c(C#N)c1
Solution: 5.3

* * *

# assayProtocol: Microsomal stability in rat liver microsome assessed as half life measured up to 24 hrs by LC-MS/MS analysis
# Format: ADME
# conditionLabel: liver microsomes
outcomeMeasure: half-life

Exercise: Can you share its half-life? I mean this molecule: C[C@H]1Cn2cnc(C(=O)N[C@H](C)C(F)(F)F)c2CN1C(=O)Nc1ccc(F)c(C#N)c1
Solution: > 1.12 h

* * *

# assayProtocol: Half life in Sprague-Dawley rat at 2 mg/kg, po measured up to 24 hrs by LC-MS/MS analysis
# Format: ADME, organism-based
# conditionLabel: in vivo
outcomeMeasure: half-life

Exercise: Can you share its half-life? I mean this compound: Cc1cc(NC(=O)N2Cc3c(C(=O)N[C@H](C)C(F)(F)F)ncn3C[C@@H]2C)ccc1F
Solution: 232 min

* * *

# assayTarget: Cytochrome P450 3A4 (Homo sapiens)
# Sequence (P08684 whole entry): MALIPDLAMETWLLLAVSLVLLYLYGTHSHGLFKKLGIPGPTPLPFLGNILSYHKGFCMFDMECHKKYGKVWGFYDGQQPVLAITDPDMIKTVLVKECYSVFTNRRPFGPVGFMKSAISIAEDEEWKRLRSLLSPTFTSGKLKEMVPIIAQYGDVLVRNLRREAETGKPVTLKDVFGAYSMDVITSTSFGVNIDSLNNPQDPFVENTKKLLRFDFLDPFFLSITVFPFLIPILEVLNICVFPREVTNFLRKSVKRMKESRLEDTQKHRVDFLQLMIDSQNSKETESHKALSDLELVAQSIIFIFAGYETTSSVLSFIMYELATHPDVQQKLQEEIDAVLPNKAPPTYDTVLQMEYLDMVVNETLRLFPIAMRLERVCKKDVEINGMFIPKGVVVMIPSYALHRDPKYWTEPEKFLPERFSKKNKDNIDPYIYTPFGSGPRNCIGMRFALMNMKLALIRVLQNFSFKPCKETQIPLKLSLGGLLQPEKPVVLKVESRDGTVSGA
# assayProtocol: Inhibition of recombinant human CYP3A4 using midazolam as substrate by LC-MS/MS analysis
# Assay type: ADME
outcomeMeasure: IC50

Exercise: Can you share its IC50? I mean this molecule: C[C@H]1Cn2cnc(C(=O)N[C@H](C)C(F)(F)F)c2CN1C(=O)Nc1ccc(F)c(C#N)c1
Solution: > 30 µM
